Provenance of the data: patent US12497394B2

# system: receptor tyrosine kinase c-Met (Homo sapiens)
# Sequence (P08581 25-1390): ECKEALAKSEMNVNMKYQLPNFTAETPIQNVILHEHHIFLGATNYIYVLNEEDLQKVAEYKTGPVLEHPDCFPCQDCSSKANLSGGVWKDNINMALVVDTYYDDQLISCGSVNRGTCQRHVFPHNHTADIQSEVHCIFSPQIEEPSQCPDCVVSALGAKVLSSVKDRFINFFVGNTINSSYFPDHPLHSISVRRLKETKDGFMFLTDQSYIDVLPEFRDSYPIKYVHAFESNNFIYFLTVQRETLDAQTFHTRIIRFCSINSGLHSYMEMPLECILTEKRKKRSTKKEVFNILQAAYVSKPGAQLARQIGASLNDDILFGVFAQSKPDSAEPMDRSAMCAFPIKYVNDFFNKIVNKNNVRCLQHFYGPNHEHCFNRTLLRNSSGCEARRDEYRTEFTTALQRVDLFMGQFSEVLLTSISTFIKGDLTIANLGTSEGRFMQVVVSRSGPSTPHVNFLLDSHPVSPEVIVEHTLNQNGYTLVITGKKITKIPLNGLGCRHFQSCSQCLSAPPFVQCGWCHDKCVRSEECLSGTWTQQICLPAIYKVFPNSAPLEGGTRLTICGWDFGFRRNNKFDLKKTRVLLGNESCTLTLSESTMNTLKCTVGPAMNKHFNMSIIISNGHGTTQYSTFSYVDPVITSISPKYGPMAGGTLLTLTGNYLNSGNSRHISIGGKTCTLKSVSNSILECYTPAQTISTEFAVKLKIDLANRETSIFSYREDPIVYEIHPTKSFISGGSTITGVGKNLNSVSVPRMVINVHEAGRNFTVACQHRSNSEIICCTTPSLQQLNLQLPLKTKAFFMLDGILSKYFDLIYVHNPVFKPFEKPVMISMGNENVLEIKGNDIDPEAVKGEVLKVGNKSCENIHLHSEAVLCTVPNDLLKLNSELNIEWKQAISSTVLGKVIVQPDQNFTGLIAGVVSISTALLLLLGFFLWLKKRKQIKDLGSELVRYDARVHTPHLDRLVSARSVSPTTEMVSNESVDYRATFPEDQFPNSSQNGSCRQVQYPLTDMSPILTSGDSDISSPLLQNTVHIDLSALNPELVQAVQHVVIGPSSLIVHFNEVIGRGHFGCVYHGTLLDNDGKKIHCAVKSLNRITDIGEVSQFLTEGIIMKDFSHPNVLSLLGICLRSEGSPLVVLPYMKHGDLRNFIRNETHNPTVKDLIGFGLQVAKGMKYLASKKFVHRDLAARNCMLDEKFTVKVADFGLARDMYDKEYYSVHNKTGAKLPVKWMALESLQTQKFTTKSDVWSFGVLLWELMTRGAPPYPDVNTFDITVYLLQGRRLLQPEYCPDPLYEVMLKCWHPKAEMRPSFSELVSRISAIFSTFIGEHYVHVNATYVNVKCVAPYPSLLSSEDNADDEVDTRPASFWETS
# method: In vitro c-Met kinase inhibitory activity
# Format: biochemical
# measurement parameters: 100 nM; two values per compound; 0.1 µM
# From the text: Experimental Example 3: Study of In Vitro c-Met Kinase Inhibitory Activity Since the screening results of 369 kinase profiles of compound DC621044 has shown that the compound has a certain inhibitory activity on c-Met. We further screened some compounds for their inhibitory activity on c-Met kinase.
observed property: c-Met Inhibitory rate (%)
Numbers only; they are read as %.

INSERT INTO measurements (molecule, unit_abbrev, value_measured) VALUES
  ('COc1cc2ncnc(Oc3ccc(NC(=O)c4c5n(n(-c6ccccc6F)c4=O)CCCC5)cc3F)c2cc1OC [DC621034]', '%', 97.0),
  ('O=C(Nc1ccc(Oc2ncnc3[nH]cc(-c4ccccc4)c23)c(F)c1)c1c2n(n(-c3cc(F)ccc3F)c1=O)CCCC2 [DC621055]', '%', 100);

Lab book: c-Met Inhibitory rate (%) of COCCOc1cc2ncnc(Oc3ccc(NC(=O)c4c5n(n(-c6ccc(F)cc6)c4=O)CCCC5)cc3C(F)(F)F)c2cc1OCCOC [DC621102] noted as 93.9

Lab book: c-Met Inhibitory rate (%) of COc1cc2ncnc(Oc3ccc(NC(=O)c4c5n(n(-c6cc(F)ccc6F)c4=O)CCCC5)c(F)c3)c2cc1OC [DC621053] noted as 98.7

Lab book: c-Met Inhibitory rate (%) of COc1cc2ncnc(Oc3ccc(NC(=O)c4c5n(n(-c6ccc(F)cc6)c4=O)CCCC5)cc3C(F)(F)F)c2cc1OC [DC621101] noted as 91.0

Lab book: c-Met Inhibitory rate (%) of COc1cc2ncnc(Oc3ccc(NC(=O)c4c5n(n(-c6cc(F)ccc6F)c4=O)CCCC5)cc3F)c2cc1OC [DC621023] noted as 100

Lab book: c-Met Inhibitory rate (%) of O=C(Nc1ccc(Oc2ncnc3[nH]cc(-c4ccccc4)c23)c(F)c1)c1c2n(n(-c3ccccc3F)c1=O)CCCC2 [DC621058] noted as 83.6

====

# system: receptor tyrosine kinase AXL (Homo sapiens, UniProt P30530)
# Construct: 50 μL of AXL kinase domain recombinant protein diluted in reaction buffer was added to start the reaction; made in house; host or cells: insect cells (baculovirus expression system)
# Sequence (P30530 536-807 limits assumed): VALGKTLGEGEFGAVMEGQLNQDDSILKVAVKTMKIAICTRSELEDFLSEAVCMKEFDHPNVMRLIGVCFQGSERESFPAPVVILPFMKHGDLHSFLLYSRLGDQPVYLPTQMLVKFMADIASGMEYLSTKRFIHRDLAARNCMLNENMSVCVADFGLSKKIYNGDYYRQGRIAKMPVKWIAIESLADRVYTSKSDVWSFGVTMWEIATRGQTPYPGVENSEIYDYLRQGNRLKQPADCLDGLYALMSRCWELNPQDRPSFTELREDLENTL
# method: Enzyme activity of receptor tyrosine kinase AXL (ELISA)
# Format: biochemical
# measurement parameters: 1 nM; read-out: AXL activity Inhibitory rate(%)
observed property: inhibition at 0.001 µM (%)
Numbers only; they are read as %.

// below: answered compounds
INSERT INTO results (compound_string, value_measured) VALUES
  ('O=C(Nc1ccc(Oc2ncnc3cc4c(cc23)OCCOCCOCCO4)c(F)c1)c1c2n(n(-c3ccccc3F)c1=O)CCCC2', 29.6),
  ('COCCOc1cc2ncnc(Oc3ccc(NC(=O)c4c5n(n(-c6ccccc6)c4=O)CCCC5)c(F)c3)c2cc1OCCOC', 8.2),
  ('O=C(Nc1ccc(Oc2ncnc3cc4c(cc23)OCCOCCOCCO4)c(F)c1)c1c2n(n(-c3cc(F)ccc3F)c1=O)CCCC2', 11.5),
  ('COCCOc1cc2ncnc(Oc3ccc(NC(=O)c4c5n(n(-c6ccccc6F)c4=O)CCCC5)cc3C(F)(F)F)c2cc1OCCOC', 4.8),
  ('COCCOc1cc2ncnc(Oc3ccc(NC(=O)c4c5n(n(-c6ccc(F)cc6)c4=O)CCCC5)cc3Cl)c2cc1OCCOC', 18.9);

# "O=C(Nc1ccc(Oc2ncnc3cc4c(cc23)OCCOCCOCCO4)c(F)c1)c1c2n(n(-c3ccccc3)c1=O)CCCC2" with receptor tyrosine kinase AXL (Homo sapiens, UniProt P30530): inhibition at 0.001 µM is 22.9
